# tested on: GRP78 on the surface of human cells (EAHY, HMVEC, HT1080) (human, UniProt P11021 19-654)
# Sequence (P11021 19-654): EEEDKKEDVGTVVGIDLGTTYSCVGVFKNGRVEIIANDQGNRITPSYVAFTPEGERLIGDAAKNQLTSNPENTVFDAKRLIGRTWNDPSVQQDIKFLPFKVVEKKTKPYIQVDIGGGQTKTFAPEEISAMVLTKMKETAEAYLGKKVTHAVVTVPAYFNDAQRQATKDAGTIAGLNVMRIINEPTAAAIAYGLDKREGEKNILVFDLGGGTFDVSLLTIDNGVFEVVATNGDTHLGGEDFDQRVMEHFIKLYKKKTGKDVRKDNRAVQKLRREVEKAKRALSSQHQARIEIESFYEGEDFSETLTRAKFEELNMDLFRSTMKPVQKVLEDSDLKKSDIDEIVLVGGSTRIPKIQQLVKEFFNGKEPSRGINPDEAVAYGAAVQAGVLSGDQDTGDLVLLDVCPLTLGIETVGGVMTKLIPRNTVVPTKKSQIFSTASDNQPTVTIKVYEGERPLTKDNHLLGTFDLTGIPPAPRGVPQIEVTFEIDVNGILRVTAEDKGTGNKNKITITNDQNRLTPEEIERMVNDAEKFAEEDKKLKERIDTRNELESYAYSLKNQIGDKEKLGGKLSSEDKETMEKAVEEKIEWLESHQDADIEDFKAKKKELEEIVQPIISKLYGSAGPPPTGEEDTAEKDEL
# assay details: cell-based or functional assay
Reported IC50, inhibition of VEGF stimulated HMVEC migration values for a set of binders
metric name: IC50, inhibition of VEGF stimulated HMVEC migration (nM)

>>> df
                                     binder  unit_of_measure  result_operator  value_observed
0                 Ac-DVPQ-NH2 [Ac-DVPQ-NH2]               nM                >            1000
1   Ac-RNPDGDVGGPW-NH2 [Ac-RNPDGDVGGPW-NH2]               nM                =             0.5
2   Ac-YTTNPRKLYDY-NH2 [Ac-YTTNPRKLYDY-HN2]               nM                =             0.2
3  Ac-VLLPDVETPSEED-NH2 [Ac-VLLPDVETPSEED-NH2]               nM                >            1000
